All figures here come from PubChem BioAssay AID2060498.

# Tested on: 171881-019-R-J1-PDC tumor spheroids, viability
# run_description: Anticancer human tumor 171881-019-R-J1-PDC patient-derived invasive breast carcinoma cell line growth inhibition [GQUAD]
# condition_notes: second compound 1 µM; first compound 3.16 µM; stronger effect = lower value; spheroids with HUVEC and MSC
measured_parameter: viability, T/C (%)
A number alone suffices; assume %.

Problem: GET viability, T/C | system: 171881-019-R-J1-PDC tumor spheroids, viability | item: C=CC(=O)N1CCN(c2nc(=O)n(-c3c(C)ccnc3C(C)C)c3nc(-c4c(O)cccc4F)c(F)cc23)C(C)C1 (centres undefined) + CN(C)c1ccc(Nc2c3ccc(NC(=O)CCN4CCCC4)cc3nc3cc(NC(=O)CCN4CCCC4)ccc23)cc1
Solution: 15.3

Problem: Under 171881-019-R-J1-PDC tumor spheroids, viability, report viability, T/C for CC1COCCN1c1cc(C2(S(C)(=N)=O)CC2)nc(-c2ccnc3[nH]ccc23)n1 (centres undefined) + Cc1cnc(CNC(=O)c2c(=O)c3ccc(N4CCCN(C)CC4)nc3n3c2sc2ccccc23)cn1
Solution: 28.7

Problem: Print 171881-019-R-J1-PDC tumor spheroids, viability viability, T/C for Nc1ccn(C2OC(CO)C(O)C2(F)F)c(=O)n1 (centres undefined) + Cc1cnc(CNC(=O)c2c(=O)c3ccc(N4CCCN(C)CC4)nc3n3c2sc2ccccc23)cn1 .
Solution: 44.2

Problem: Identify measured viability, T/C obtained with 171881-019-R-J1-PDC tumor spheroids, viability for CCCS(=O)(=O)Nc1ccc(F)c(C(=O)c2c[nH]c3ncc(-c4ccc(Cl)cc4)cc23)c1F + Cc1[nH]c2ccc(F)cc2c1-c1nc2c3cccnc3c3ncccc3c2[nH]1 .
Solution: 77.4

Problem: # return viability, T/C for CC(=O)O[C@H]1C(=O)[C@@]2(C)[C@H]([C@H](OC(=O)c3ccccc3)[C@]3(O)C[C@H](OC(=O)[C@H](O)[C@@H](NC(=O)c4ccccc4)c4ccccc4)C(C)=C1C3(C)C)[C@]1(OC(C)=O)CO[C@@H]1C[C@@H]2O + CN(C)c1ccc(Nc2c3ccc(NC(=O)CCN4CCCC4)cc3nc3cc(NC(=O)CCN4CCCC4)ccc23)cc1 , test system: 171881-019-R-J1-PDC tumor spheroids, viability
Solution: 2.08

Problem: State the measured viability, T/C (171881-019-R-J1-PDC tumor spheroids, viability) of CC(C)(O)C1CCC(Nc2ccc3ncc(-c4cccc(C(F)(F)F)c4)n3n2)CC1 (centres undefined) + CN(C)c1ccc(Nc2c3ccc(NC(=O)CCN4CCCC4)cc3nc3cc(NC(=O)CCN4CCCC4)ccc23)cc1
Solution: 0.4

Problem: Tell me its viability, T/C on 171881-019-R-J1-PDC tumor spheroids, viability: CC(=O)O[C@H]1C(=O)[C@@]2(C)[C@H]([C@H](OC(=O)c3ccccc3)[C@]3(O)C[C@H](OC(=O)[C@H](O)[C@@H](NC(=O)c4ccccc4)c4ccccc4)C(C)=C1C3(C)C)[C@]1(OC(C)=O)CO[C@@H]1C[C@@H]2O + Cc1[nH]c2ccc(F)cc2c1-c1nc2c3cccnc3c3ncccc3c2[nH]1
Solution: 29.7

Problem: Name the recorded viability, T/C of COc1ncnc(C2CC2)c1-c1ncc2cnn(Cc3ccc(-c4nc(C(F)(F)F)cn4C(C)C)cc3)c2n1 + Cc1[nH]c2ccc(F)cc2c1-c1nc2c3cccnc3c3ncccc3c2[nH]1 , assay system 171881-019-R-J1-PDC tumor spheroids, viability.
Solution: 71.1

Problem: State, for 171881-019-R-J1-PDC tumor spheroids, viability, measured viability, T/C of the compound listed here: CC1COCCN1c1cc(-c2ccnn2C)c2ccnc(-c3ccn[nH]3)c2n1 (centres undefined) + CN(C)c1ccc(Nc2c3ccc(NC(=O)CCN4CCCC4)cc3nc3cc(NC(=O)CCN4CCCC4)ccc23)cc1
Solution: 0.66

Problem: Fill in viability, T/C for Cc1cccc(N(C)C(=O)C2C(O)CCN2c2nc(C)cc(C(F)(F)F)c2C#N)c1 (centres undefined) + Cc1cnc(CNC(=O)c2c(=O)c3ccc(N4CCCN(C)CC4)nc3n3c2sc2ccccc23)cn1 tested with 171881-019-R-J1-PDC tumor spheroids, viability.
Solution: 74.2

Problem: State recorded viability, T/C with 171881-019-R-J1-PDC tumor spheroids, viability, entry COc1ccc([C@@H](O)c2cc(-c3ncnc4cc(N5CCOCC5)ccc34)c(F)cc2Cl)nn1 + Cc1cnc(CNC(=O)c2c(=O)c3ccc(N4CCCN(C)CC4)nc3n3c2sc2ccccc23)cn1 , no comment.
Solution: 10.8

Problem: Please respond with reported viability, T/C (system 171881-019-R-J1-PDC tumor spheroids, viability) for COc1ccc([C@@H](O)c2cc(-c3ncnc4cc(N5CCOCC5)ccc34)c(F)cc2Cl)nn1 + Cc1[nH]c2ccc(F)cc2c1-c1nc2c3cccnc3c3ncccc3c2[nH]1 .
Solution: 12.2

Problem: // fetch viability, T/C for C=CC(=O)N1CCN(c2nc(=O)n(-c3c(C)ccnc3C(C)C)c3nc(-c4c(O)cccc4F)c(F)cc23)C(C)C1 (centres undefined) + Cc1[nH]c2ccc(F)cc2c1-c1nc2c3cccnc3c3ncccc3c2[nH]1 ; system: 171881-019-R-J1-PDC tumor spheroids, viability
Solution: 85.4

Problem: State viability, T/C on 171881-019-R-J1-PDC tumor spheroids, viability. Entry: O=C(NO)c1cnc(N2CCN(S(=O)(=O)c3ccc4ccccc4c3)CC2)nc1 + CN(C)c1ccc(Nc2c3ccc(NC(=O)CCN4CCCC4)cc3nc3cc(NC(=O)CCN4CCCC4)ccc23)cc1
Solution: 0.06

* * *

# Test system: 171881-019-R-J1-PDC tumor spheroids, viability
# run_description: Anticancer human tumor 171881-019-R-J1-PDC cell line growth inhibition [GQUAD];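 further: spheroids exposed to compounds for 7 days; 100% = DMSO vehicle control viability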
# condition_notes: second compound 0.316 µM; first compound 0.0316 µM; stronger effect = lower value; spheroids with HUVEC and MSC
measured_parameter: viability, T/C (%)
All answers are understood in %, so give the number only.

Problem: Find the measured viability, T/C of CC[C@@]1(O)C(=O)OCc2c1cc1n(c2=O)Cc2cc3c(CN(C)C)c(O)ccc3nc2-1 + CN(C)c1ccc(Nc2c3ccc(NC(=O)CCN4CCCC4)cc3nc3cc(NC(=O)CCN4CCCC4)ccc23)cc1 and report it.
Solution: 70.7

Problem: Query viability, T/C for O=c1[nH]cc(F)c(=O)[nH]1 + CN(C)c1ccc(Nc2c3ccc(NC(=O)CCN4CCCC4)cc3nc3cc(NC(=O)CCN4CCCC4)ccc23)cc1
Solution: 70.5

Problem: Consider the compound O=C(c1cc(Cc2n[nH]c(=O)c3ccccc23)ccc1F)N1CCN(C(=O)C2CC2)CC1 + Cc1cnc(CNC(=O)c2c(=O)c3ccc(N4CCCN(C)CC4)nc3n3c2sc2ccccc23)cn1 and give its recorded viability, T/C.
Solution: 70.1

Problem: Supply reported viability, T/C belonging to this compound: C#Cc1c(F)ccc2cc(O)cc(-c3ncc4c(N5CC6CCC(C5)N6)nc(OCC56CCCN5CC(F)C6)nc4c3F)c12 (centres undefined) + Cc1cnc(CNC(=O)c2c(=O)c3ccc(N4CCCN(C)CC4)nc3n3c2sc2ccccc23)cn1
Solution: 68

* * *

# System: 171881-019-R-J1-PDC tumor spheroids, viability
# run_description: Anticancer human tumor 171881-019-R-J1-PDC cell line growth inhibition [GQUAD];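 further: spheroids exposed to compounds for 7 days; 100% = DMSO vehicle control viability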
# condition_notes: second compound 0.316 µM; first compound 0.0316 µM; stronger effect = lower value; spheroids with HUVEC and MSC
# note: boundary value 80% maps to -1; viability, T/C below it maps to 1

Problem: API: query returns whether the molecule falls strictly under 80% in viability, T/C. Query: Nc1ccn(C2OC(CO)C(O)C2(F)F)c(=O)n1 (centres undefined) + Cc1[nH]c2ccc(F)cc2c1-c1nc2c3cccnc3c3ncccc3c2[nH]1
Solution: 1

Problem: Criterion: viability, T/C strictly below 80%. Is it met by Nc1ccn(C2OC(CO)C(O)C2(F)F)c(=O)n1 (centres undefined) + CN(C)c1ccc(Nc2c3ccc(NC(=O)CCN4CCCC4)cc3nc3cc(NC(=O)CCN4CCCC4)ccc23)cc1 ?
Solution: 1

Problem: viability, T/C strictly < 80% for this molecule? COc1cccc2c1C(=O)c1c(O)c3c(c(O)c1C2=O)CC(O)(C(=O)CO)CC3OC1CC(N)C(O)C(C)O1 (centres undefined) + Cc1[nH]c2ccc(F)cc2c1-c1nc2c3cccnc3c3ncccc3c2[nH]1
Solution: -1

Problem: Dear reviewer, please state whether COc1ncnc(C2CC2)c1-c1ncc2cnn(Cc3ccc(-c4nc(C(F)(F)F)cn4C(C)C)cc3)c2n1 + CN(C)c1ccc(Nc2c3ccc(NC(=O)CCN4CCCC4)cc3nc3cc(NC(=O)CCN4CCCC4)ccc23)cc1 has viability, T/C strictly beneath 80%.
Solution: 1

Problem: State whether 80% exceeds viability, T/C recorded for CC1COCCN1c1cc(C2(S(C)(=N)=O)CC2)nc(-c2ccnc3[nH]ccc23)n1 (centres undefined) + Cc1[nH]c2ccc(F)cc2c1-c1nc2c3cccnc3c3ncccc3c2[nH]1 .
Solution: -1

Problem: Could you please tell me whether viability, T/C recorded for COc1ccc([C@@H](O)c2cc(-c3ncnc4cc(N5CCOCC5)ccc34)c(F)cc2Cl)nn1 + Cc1[nH]c2ccc(F)cc2c1-c1nc2c3cccnc3c3ncccc3c2[nH]1 is less than 80%?
Solution: -1

Problem: Check if viability, T/C falls below 80% for CC(=O)O[C@H]1C(=O)[C@@]2(C)[C@H]([C@H](OC(=O)c3ccccc3)[C@]3(O)C[C@H](OC(=O)[C@H](O)[C@@H](NC(=O)c4ccccc4)c4ccccc4)C(C)=C1C3(C)C)[C@]1(OC(C)=O)CO[C@@H]1C[C@@H]2O + Cc1cnc(CNC(=O)c2c(=O)c3ccc(N4CCCN(C)CC4)nc3n3c2sc2ccccc23)cn1 .
Solution: 1

Problem: Take the molecule O=c1[nH]cc(F)c(=O)[nH]1 + Cc1cnc(CNC(=O)c2c(=O)c3ccc(N4CCCN(C)CC4)nc3n3c2sc2ccccc23)cn1 and say whether its viability, T/C is less than 80%.
Solution: 1

Problem: Record Cn1ncnc1[C@H]1c2n[nH]c(=O)c3cc(F)cc(c23)N[C@@H]1c1ccc(F)cc1 + Cc1cnc(CNC(=O)c2c(=O)c3ccc(N4CCCN(C)CC4)nc3n3c2sc2ccccc23)cn1 : is its viability, T/C strictly below 80%?
Solution: 1

Problem: Criterion: viability, T/C strictly below 80%. Is it met by CC1COCCN1c1cc(C2(S(C)(=N)=O)CC2)nc(-c2ccnc3[nH]ccc23)n1 (centres undefined) + Cc1cnc(CNC(=O)c2c(=O)c3ccc(N4CCCN(C)CC4)nc3n3c2sc2ccccc23)cn1 ?
Solution: 1

Problem: State whether 80% exceeds viability, T/C recorded for Cn1ncnc1[C@H]1c2n[nH]c(=O)c3cc(F)cc(c23)N[C@@H]1c1ccc(F)cc1 + CN(C)c1ccc(Nc2c3ccc(NC(=O)CCN4CCCC4)cc3nc3cc(NC(=O)CCN4CCCC4)ccc23)cc1 .
Solution: 1
